- Tested on: Orexin receptor type 2 (Homo sapiens)
- Sequence (O43614 whole entry): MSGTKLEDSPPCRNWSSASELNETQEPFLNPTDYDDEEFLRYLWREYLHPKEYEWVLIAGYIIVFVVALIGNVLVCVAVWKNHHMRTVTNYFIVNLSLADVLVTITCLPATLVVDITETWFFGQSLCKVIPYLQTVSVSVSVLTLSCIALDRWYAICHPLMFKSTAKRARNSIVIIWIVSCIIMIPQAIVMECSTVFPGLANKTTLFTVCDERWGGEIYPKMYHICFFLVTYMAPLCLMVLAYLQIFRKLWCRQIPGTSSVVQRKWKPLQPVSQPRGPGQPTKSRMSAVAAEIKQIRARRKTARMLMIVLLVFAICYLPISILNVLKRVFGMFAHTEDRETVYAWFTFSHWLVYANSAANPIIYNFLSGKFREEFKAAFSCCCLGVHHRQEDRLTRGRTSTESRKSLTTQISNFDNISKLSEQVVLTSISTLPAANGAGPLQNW
Give log10(IC50) for every item shown.
Hi team, quick reminder: these entries are log10 of IC50 (nM).

Prompt: Quick check: log10(IC50) of `CC(C)OC(=O)N1[C@H](C)C[C@H](NS(=O)(=O)N(C)C)[C@@H]1COC1CCN(c2ncc(F)cn2)CC1` ?
Response: 0.06

Prompt: Quick check: log10(IC50) of `COC(=O)N1[C@H](C)C[C@H](NS(=O)(=O)N(C)C)[C@@H]1CO[C@H]1CC[C@@H](c2ccc(C#N)c(C)c2)CC1` ?
Response: 0.04

Prompt: Quick check: log10(IC50) of `COC(=O)N1[C@H](C)C[C@H](NS(=O)(=O)N(C)C)[C@@H]1CO[C@H]1CC[C@@H](c2cc(F)cc(F)c2)CC1` ?
Response: -0.28

Prompt: Quick check: log10(IC50) of `CC[C@H]1C[C@@H](NS(C)(=O)=O)[C@@H](CO[C@H]2CC[C@@H](c3ccccc3)CC2)N1C(=O)OC` ?
Response: 3.87

Prompt: Quick check: log10(IC50) of `CCc1ccccc1[C@H]1CC[C@@H](OC[C@H]2[C@@H](NS(=O)(=O)N(C)C)C[C@@H](C)N2C(=O)OC)CC1` ?
Response: 0.34

Prompt: Quick check: log10(IC50) of COC(=O)N1[C@H](C)C[C@H](NS(=O)(=O)N(C)C)[C@@H]1CO[C@@H]1CC[C@H](c2cccc(F)c2)CC1F (stereo not given in full) ?
Response: 0.56

Prompt: Quick check: log10(IC50) of `COC(=O)N1[C@H](C)C[C@H](NS(=O)(=O)CC(F)F)[C@@H]1CO[C@H]1CC[C@@H](c2cccc(F)c2)CC1` ?
Response: 0.72

Prompt: Quick check: log10(IC50) of COC(=O)N1[C@H](C)C[C@H](NS(=O)(=O)N(C)C)[C@@H]1CO[C@@H]1CC[C@H](c2ccccc2)CC1F (stereo not given in full) ?
Response: 1.03

Prompt: Quick check: log10(IC50) of `COC(=O)N1[C@H](C)C[C@H](NS(C)(=O)=O)[C@@H]1CO[C@H]1CC[C@@H](c2ccc(F)c(F)c2)CC1` ?
Response: 1.41

Prompt: Quick check: log10(IC50) of `COC[C@@H]1C[C@H](NS(=O)(=O)N(C)C)[C@H](CO[C@H]2CC[C@@H](c3cccc(F)c3)CC2)N1C(=O)OC` ?
Response: -0.15

Prompt: Quick check: log10(IC50) of `COC(=O)N1[C@H](C)C[C@H](NS(=O)(=O)N(C)CC#N)[C@@H]1CO[C@H]1CC[C@@H](c2cccc(F)c2)CC1` ?
Response: -0.22

Prompt: Quick check: log10(IC50) of COCCS(=O)(=O)N[C@H]1C[C@@H](C)N(C(=O)OC)[C@H]1COC1CCC(c2cccc(F)c2)CC1 (stereo not given in full) ?
Response: 0.66

Prompt: Quick check: log10(IC50) of `COC(=O)N1[C@H](C)C[C@H](NS(=O)(=O)CF)[C@@H]1CO[C@H]1CC[C@@H](c2ccccc2)CC1` ?
Response: -0.03

Prompt: Quick check: log10(IC50) of COC(=O)N1C(C2CC2)C[C@H](NS(C)(=O)=O)C1COC1CCC(c2ccccc2)CC1 (stereo not given in full) ?
Response: 1.87

Prompt: Quick check: log10(IC50) of `COC(=O)N1[C@H](C)C[C@H](NS(=O)(=O)N(C)C)[C@@H]1CO[C@H]1CC[C@@H](c2ccccc2F)CC1` ?
Response: -0.04
